- EXPERIMENT_SUMMARY: protein stability index of a GFP-peptide fusion (GPS, HEK-293T) (PSI 1-6); higher = more stable;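 also: 24-mer peptide tiles fused after GFP, lentivirally expressed, FACS-sorted into six equal bins by GFP/DsRed ratio, decoded by Illumina sequencing, PSI is the read-weighted mean bin number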
- TEST_PARAMETERS: treatment: DMSO; c terminus: a fixed tail appended

[
  {
    "CHAIN": "EVVMNSQQTPVGTPKDKRVSNTPL [PALM]",
    "protein stability index": 3.44
  },
  {
    "CHAIN": "KCSDCGKAFLTKTMLIVHHRTHTG [ZNF649]",
    "protein stability index": 2.84
  },
  {
    "CHAIN": "DEDAGLPRPVQLDETHPYTVTSVS [NEK8]",
    "protein stability index": 5.12
  },
  {
    "CHAIN": "GATVRSFSINSRLASSLGNLNAAT [CDC14A]",
    "protein stability index": 2.98
  },
  {
    "CHAIN": "ENHEIYMKDSMSAAEVGTGQYATT [EPB41L3]",
    "protein stability index": 4.79
  },
  {
    "CHAIN": "RPTYFEMKNEKLLSKASEPKYQLF [RNF180]",
    "protein stability index": 2.54
  },
  {
    "CHAIN": "PRAGKEESGVSVSNSQPTNESHSI [SLC29A1]",
    "protein stability index": 5.33
  },
  {
    "CHAIN": "TDGRPQDSVAEVAAKARDTGILIF [MATN2]",
    "protein stability index": 2.86
  },
  {
    "CHAIN": "GKEPLDPDPSHSPSDKVGRADAHL [TOR1AIP2]",
    "protein stability index": 5.07
  },
  {
    "CHAIN": "ICYLPHWMMQNLLLEEGGLVQVES [UFD1]",
    "protein stability index": 2.65
  },
  {
    "CHAIN": "TFLPYTFSLMVTFPDVPLGIFLFC [TMEM175]",
    "protein stability index": 2.49
  },
  {
    "CHAIN": "FGAAYVLEQASSHIGNSTQATVRD [ATL3]",
    "protein stability index": 3.06
  },
  {
    "CHAIN": "SSHMNIDITDDCICDLARSIDFNK [PPEF2]",
    "protein stability index": 3.67
  }
]

----------
protein stability index listing for selected sequences.
- EXPERIMENT_SUMMARY: protein stability index of a GFP-peptide fusion (GPS, HEK-293T) (PSI 1-6); higher = more stable
- TEST_PARAMETERS: treatment: DMSO; c terminus: a fixed tail appended
EXPERIMENTAL_ENDPOINT: protein stability index

[
  {
    "CHAIN": "NESLASLPLRVSFCPLSLWRWQLY [CLPTM1]",
    "EXPERIMENTAL_ENDPOINT": "protein stability index",
    "ENDPOINT_RESULT": 2.45
  },
  {
    "CHAIN": "SNRWLMVKIFLILIVFFIIFVVFL [STX5]",
    "EXPERIMENTAL_ENDPOINT": "protein stability index",
    "ENDPOINT_RESULT": 3.38
  },
  {
    "CHAIN": "PANVDASVMYRKWKESKGKDREYT [CDC34]",
    "EXPERIMENTAL_ENDPOINT": "protein stability index",
    "ENDPOINT_RESULT": 4.16
  },
  {
    "CHAIN": "LTEQQEQLRGQLQDLDSRLRAGSS [RASAL3]",
    "EXPERIMENTAL_ENDPOINT": "protein stability index",
    "ENDPOINT_RESULT": 5.08
  },
  {
    "CHAIN": "LSQMGAQSSGKILLCPLCQEEEQA [TRIM15]",
    "EXPERIMENTAL_ENDPOINT": "protein stability index",
    "ENDPOINT_RESULT": 3.85
  },
  {
    "CHAIN": "AKHLIASMLSKNPEDRPSLDDIIR [PLK2]",
    "EXPERIMENTAL_ENDPOINT": "protein stability index",
    "ENDPOINT_RESULT": 2.61
  },
  {
    "CHAIN": "DLAKLVDQQNPTLGETPENSNLEE [ZNF449]",
    "EXPERIMENTAL_ENDPOINT": "protein stability index",
    "ENDPOINT_RESULT": 5.47
  },
  {
    "CHAIN": "NPVQPIGPQTPKACDSKLTFDAIT [MMP1]",
    "EXPERIMENTAL_ENDPOINT": "protein stability index",
    "ENDPOINT_RESULT": 4.21
  },
  {
    "CHAIN": "PQQQHHKAKRNRTCRPPSSSESSS [ANKRD17]",
    "EXPERIMENTAL_ENDPOINT": "protein stability index",
    "ENDPOINT_RESULT": 4.86
  },
  {
    "CHAIN": "LNTLTLNVKSEKVYTRHGVPISVT [FLOT1]",
    "EXPERIMENTAL_ENDPOINT": "protein stability index",
    "ENDPOINT_RESULT": 2.51
  },
  {
    "CHAIN": "MPSWASARDRQPSDFKTDKEGGQA [ELOA2]",
    "EXPERIMENTAL_ENDPOINT": "protein stability index",
    "ENDPOINT_RESULT": 5.14
  },
  {
    "CHAIN": "LDPQPITDEEEGLIWVVGPVLAVV [PTPRD]",
    "EXPERIMENTAL_ENDPOINT": "protein stability index",
    "ENDPOINT_RESULT": 2.02
  },
  {
    "CHAIN": "IQDLCEMLGKYGSSLEFTELLTLV [CASP6]",
    "EXPERIMENTAL_ENDPOINT": "protein stability index",
    "ENDPOINT_RESULT": 2.34
  },
  {
    "CHAIN": "VRKREAPAPEAESKQTEKDPGVQE [EFHC1]",
    "EXPERIMENTAL_ENDPOINT": "protein stability index",
    "ENDPOINT_RESULT": 5.47
  },
  {
    "CHAIN": "DQRNPAKESLETPSNGRIDIKQLI [SOAT1]",
    "EXPERIMENTAL_ENDPOINT": "protein stability index",
    "ENDPOINT_RESULT": 4.13
  },
  {
    "CHAIN": "IQKNYECANFGDQGITMGCWDMYR [LOXL2]",
    "EXPERIMENTAL_ENDPOINT": "protein stability index",
    "ENDPOINT_RESULT": 2.06
  },
  {
    "CHAIN": "FPKSEQVYLHFLSVVTEDGPEPKD [ZNF232]",
    "EXPERIMENTAL_ENDPOINT": "protein stability index",
    "ENDPOINT_RESULT": 2.58
  },
  {
    "CHAIN": "FLMLINLGLGSMIGTMAGITTPII [SLC6A17]",
    "EXPERIMENTAL_ENDPOINT": "protein stability index",
    "ENDPOINT_RESULT": 3.1
  },
  {
    "CHAIN": "LSLEEELSRVKAAALSERGQAEEE [LRRC45]",
    "EXPERIMENTAL_ENDPOINT": "protein stability index",
    "ENDPOINT_RESULT": 5.45
  },
  {
    "CHAIN": "AEEWYKSKYADLSDAANRNHEALR [PRPH]",
    "EXPERIMENTAL_ENDPOINT": "protein stability index",
    "ENDPOINT_RESULT": 4.27
  },
  {
    "CHAIN": "LMDCCLIVYHPYRPLLQYVQDMGQ [CCNC]",
    "EXPERIMENTAL_ENDPOINT": "protein stability index",
    "ENDPOINT_RESULT": 3.26
  },
  {
    "CHAIN": "LLAEREQEEAIAQFPYVEFTGRDS [TMEM106C]",
    "EXPERIMENTAL_ENDPOINT": "protein stability index",
    "ENDPOINT_RESULT": 4.6
  },
  {
    "CHAIN": "QRALHKYSLMKRQMMSATAQNREP [SNX8]",
    "EXPERIMENTAL_ENDPOINT": "protein stability index",
    "ENDPOINT_RESULT": 3.24
  },
  {
    "CHAIN": "PCHPTVKNWRNFASKWGMSYDELC [EDARADD]",
    "EXPERIMENTAL_ENDPOINT": "protein stability index",
    "ENDPOINT_RESULT": 2.64
  },
  {
    "CHAIN": "RRRQRSEKKKAHYRQSSFPHCSDL [KCNA4]",
    "EXPERIMENTAL_ENDPOINT": "protein stability index",
    "ENDPOINT_RESULT": 3.66
  },
  {
    "CHAIN": "LSFAHANCTLIISYQKPKEVVVAE [DPCD]",
    "EXPERIMENTAL_ENDPOINT": "protein stability index",
    "ENDPOINT_RESULT": 2.69
  },
  {
    "CHAIN": "NLPNLAAAYSSILSSLGENPQRQG [GCH1]",
    "EXPERIMENTAL_ENDPOINT": "protein stability index",
    "ENDPOINT_RESULT": 3.03
  }
]
